# TGT: Human CaV2.2 channels (Homo sapiens, UniProt Q00975)
# Construct: expressed in transfected cells; host or cells: HEK293
# Sequence (Q00975 whole entry): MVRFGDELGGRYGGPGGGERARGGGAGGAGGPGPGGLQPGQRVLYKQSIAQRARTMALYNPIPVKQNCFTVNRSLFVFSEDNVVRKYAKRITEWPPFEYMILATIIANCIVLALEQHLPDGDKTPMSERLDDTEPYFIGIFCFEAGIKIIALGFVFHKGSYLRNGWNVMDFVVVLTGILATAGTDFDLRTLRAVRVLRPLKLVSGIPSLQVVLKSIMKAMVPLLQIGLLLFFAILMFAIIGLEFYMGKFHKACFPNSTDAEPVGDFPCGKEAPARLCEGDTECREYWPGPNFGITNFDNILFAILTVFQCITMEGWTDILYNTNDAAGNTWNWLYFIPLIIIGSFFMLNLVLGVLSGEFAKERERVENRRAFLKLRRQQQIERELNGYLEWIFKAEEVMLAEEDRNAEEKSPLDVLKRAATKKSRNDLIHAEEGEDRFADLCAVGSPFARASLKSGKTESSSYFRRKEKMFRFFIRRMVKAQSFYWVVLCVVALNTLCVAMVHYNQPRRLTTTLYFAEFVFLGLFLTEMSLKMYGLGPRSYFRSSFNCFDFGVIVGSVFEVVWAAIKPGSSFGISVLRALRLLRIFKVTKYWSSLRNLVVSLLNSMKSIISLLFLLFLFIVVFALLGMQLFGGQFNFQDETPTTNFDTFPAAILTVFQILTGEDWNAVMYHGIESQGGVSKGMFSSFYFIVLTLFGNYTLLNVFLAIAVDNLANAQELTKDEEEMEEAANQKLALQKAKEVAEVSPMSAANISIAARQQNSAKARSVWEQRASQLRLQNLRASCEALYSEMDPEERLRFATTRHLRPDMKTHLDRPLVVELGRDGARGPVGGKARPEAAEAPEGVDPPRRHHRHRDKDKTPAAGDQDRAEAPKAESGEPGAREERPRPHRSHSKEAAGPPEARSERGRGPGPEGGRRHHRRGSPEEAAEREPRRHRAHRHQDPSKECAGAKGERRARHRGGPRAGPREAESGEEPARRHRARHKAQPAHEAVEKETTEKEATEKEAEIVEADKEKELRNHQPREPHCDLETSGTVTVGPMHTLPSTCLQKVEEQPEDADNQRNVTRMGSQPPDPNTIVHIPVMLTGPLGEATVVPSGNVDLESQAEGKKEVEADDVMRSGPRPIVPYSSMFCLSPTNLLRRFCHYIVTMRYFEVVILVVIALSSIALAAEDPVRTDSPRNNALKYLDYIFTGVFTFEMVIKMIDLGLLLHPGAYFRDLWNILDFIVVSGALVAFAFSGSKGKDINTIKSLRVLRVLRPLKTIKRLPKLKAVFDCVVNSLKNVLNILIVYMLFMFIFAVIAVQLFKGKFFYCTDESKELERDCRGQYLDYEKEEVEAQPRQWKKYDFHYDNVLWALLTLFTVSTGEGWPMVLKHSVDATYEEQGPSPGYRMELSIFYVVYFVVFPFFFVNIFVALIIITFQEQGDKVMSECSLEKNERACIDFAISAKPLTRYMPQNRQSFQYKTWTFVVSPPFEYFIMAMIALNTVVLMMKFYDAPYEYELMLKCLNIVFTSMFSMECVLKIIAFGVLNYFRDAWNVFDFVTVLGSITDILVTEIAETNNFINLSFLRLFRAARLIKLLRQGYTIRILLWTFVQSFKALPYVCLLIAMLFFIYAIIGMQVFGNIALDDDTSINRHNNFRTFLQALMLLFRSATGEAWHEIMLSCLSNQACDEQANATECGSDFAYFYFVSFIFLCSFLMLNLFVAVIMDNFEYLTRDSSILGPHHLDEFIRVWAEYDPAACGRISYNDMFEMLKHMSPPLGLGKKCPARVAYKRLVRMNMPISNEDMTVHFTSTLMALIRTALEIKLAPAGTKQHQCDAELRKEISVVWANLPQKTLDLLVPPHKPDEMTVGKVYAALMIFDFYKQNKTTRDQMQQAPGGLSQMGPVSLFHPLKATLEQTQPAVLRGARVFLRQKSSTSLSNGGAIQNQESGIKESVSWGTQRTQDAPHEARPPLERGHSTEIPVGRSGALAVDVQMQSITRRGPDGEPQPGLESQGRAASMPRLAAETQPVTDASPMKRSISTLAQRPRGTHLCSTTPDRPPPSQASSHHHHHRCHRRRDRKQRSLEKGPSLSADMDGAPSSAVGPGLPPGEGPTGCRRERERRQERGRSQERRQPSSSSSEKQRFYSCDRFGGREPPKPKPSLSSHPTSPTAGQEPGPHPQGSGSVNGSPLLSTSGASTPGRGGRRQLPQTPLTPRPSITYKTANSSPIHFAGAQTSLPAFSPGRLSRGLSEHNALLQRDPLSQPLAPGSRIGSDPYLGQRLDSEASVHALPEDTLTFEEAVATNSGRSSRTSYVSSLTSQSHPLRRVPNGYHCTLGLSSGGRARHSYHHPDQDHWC
# Sequence (P54284 whole entry, further chain): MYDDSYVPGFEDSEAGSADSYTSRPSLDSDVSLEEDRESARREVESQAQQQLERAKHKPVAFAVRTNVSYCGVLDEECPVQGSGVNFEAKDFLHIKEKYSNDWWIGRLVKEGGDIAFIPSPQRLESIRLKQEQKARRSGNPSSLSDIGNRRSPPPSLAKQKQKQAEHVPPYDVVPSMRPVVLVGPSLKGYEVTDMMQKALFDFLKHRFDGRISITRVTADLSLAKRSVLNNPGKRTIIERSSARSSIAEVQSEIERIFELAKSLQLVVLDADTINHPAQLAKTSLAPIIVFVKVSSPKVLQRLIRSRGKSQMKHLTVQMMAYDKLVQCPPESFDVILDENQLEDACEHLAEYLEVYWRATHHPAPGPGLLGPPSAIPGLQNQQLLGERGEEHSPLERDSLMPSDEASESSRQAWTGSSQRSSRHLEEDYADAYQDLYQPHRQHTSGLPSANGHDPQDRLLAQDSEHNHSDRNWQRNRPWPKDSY
# Sequence (P54289 25-1103, further chain): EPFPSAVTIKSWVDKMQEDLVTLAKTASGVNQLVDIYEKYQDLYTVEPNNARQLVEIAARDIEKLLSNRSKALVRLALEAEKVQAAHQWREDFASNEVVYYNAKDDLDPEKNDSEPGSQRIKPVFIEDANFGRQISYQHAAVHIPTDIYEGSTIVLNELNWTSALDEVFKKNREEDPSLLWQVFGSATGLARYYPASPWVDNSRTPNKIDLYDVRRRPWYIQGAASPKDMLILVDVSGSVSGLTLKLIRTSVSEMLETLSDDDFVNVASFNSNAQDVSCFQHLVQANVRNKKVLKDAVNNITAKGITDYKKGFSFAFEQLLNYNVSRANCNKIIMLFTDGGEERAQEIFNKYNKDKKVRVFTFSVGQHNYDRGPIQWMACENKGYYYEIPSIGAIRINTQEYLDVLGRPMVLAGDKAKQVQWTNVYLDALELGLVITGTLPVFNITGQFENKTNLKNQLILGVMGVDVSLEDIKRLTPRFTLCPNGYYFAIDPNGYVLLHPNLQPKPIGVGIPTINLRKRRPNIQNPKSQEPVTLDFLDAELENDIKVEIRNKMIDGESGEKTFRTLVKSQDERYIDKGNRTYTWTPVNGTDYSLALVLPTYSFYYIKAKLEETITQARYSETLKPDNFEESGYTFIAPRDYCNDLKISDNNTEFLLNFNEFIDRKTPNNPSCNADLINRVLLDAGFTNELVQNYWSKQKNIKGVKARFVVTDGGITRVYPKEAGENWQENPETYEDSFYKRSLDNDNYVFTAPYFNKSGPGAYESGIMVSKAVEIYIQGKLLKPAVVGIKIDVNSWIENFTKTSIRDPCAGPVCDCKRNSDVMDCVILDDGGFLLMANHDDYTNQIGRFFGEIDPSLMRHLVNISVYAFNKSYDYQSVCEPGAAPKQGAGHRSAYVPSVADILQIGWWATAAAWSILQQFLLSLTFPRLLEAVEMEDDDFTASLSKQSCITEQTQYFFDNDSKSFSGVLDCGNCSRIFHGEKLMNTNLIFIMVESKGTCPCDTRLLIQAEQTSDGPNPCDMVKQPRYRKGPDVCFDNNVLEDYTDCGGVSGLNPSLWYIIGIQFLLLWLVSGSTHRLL
# METHOD: Fluorescent (FLIPR) assay for CaV2.2 channels using potassium depolarization to induce channel opening
# Assay type: cell-based
# EXPERIMENTAL CONDITIONS: 3 μM compound; 30 mM KCl assay buffer (inactivated channel state); HEK293 cells stably expressing human CaV2.2; read-out: Activity Category: %-Inhib (CaV2.2) @3 μM @30 mM KCl
METRIC NAME: inhibition at 3 µM

So, Cc1c(-c2ccc(Cl)cc2)c(C(=O)N2CCOCC2)n(CC2(C)CC2)c1C(F)(F)F ? Its inhibition at 3 µM was > 95%

// recorded inhibition at 3 µM for CN(CC(C)(C)C)C(=O)c1c(-c2ccc(Cl)cc2)cc(C(F)(F)F)n1CC1CCCO1 (stereo not shown) : 75 to 95%

Per the record, CC(C)Cn1c(C(F)(F)F)cc(-c2ccc(F)cc2)c1C(=O)N(C)CC1CCOC1 (stereo not shown) has inhibition at 3 µM of > 95%

Lab book: inhibition at 3 µM of Cc1c(-c2ccc(Cl)cc2)c(C(=O)N(C)C2CC2)n(C2CC2)c1C(F)(F)F noted as 75 to 95%

Measured inhibition at 3 µM, Cc1c(-c2ccc(Cl)cn2)c(C(=O)N(C)CC(C)(C)C(N)=O)n(C(C)C)c1C(F)(F)F : 40 to 75%

Data point: CN(CC(C)(C)C)C(=O)c1c(-c2ccc(Cl)cc2)cc(C(F)(F)F)n1C1CC1 ; inhibition at 3 µM = 40 to 75%

Sample Cc1c(-c2ccc(Cl)cc2)c(C(=O)N(C)Cc2ccncn2)n(CC(C)C)c1C(F)(F)F ; inhibition at 3 µM observed: > 95%

// inhibition at 3 µM value for Cc1c(-c2ccc(Cl)cc2)c(C(=O)N(C)CC(C)(C)C#N)n(CC(C)C)c1C(F)(F)F : 40 to 75%

So, Cc1c(-c2ccc(Cl)cn2)c(C(=O)N(C)CC(C)(C)C#N)n(C(C)C)c1C(F)(F)F ? Its inhibition at 3 µM was 75 to 95%

inhibition at 3 µM measured on Cc1c(-c2ccc(Cl)cc2)c(C(=O)N(C)C2(C(N)=O)CC2)n(CC(C)C)c1C(F)(F)F = > 95%

So for Cc1c(-c2ncc(Cl)cn2)c(C(=O)N(C)CC(C)(C)C#N)n(C(C)C)c1C(F)(F)F , the logged inhibition at 3 µM turned out to be 40 to 75%

Recorded inhibition at 3 µM (molecule Cc1c(-c2ccc(Cl)cc2)c(C(=O)N2CCN(C(=O)NC(C)(C)C)CC2)n(C(C)C)c1C(F)(F)F ): 75 to 95%

// recorded inhibition at 3 µM for Cc1noc(C2CCN(C(=O)c3c(-c4ccc(Cl)cc4)cc(C(F)(F)F)n3C3CC3)CC2)n1 : 75 to 95%

Summary for this molecule, CN(CC(C)(C)C)C(=O)c1c(-c2ccc(F)cc2)cc(C(F)(F)F)n1CC1CCCO1 (stereo not shown) : inhibition at 3 µM is 75 to 95%

Measured inhibition at 3 µM, Cc1c(-c2ccc(Cl)cc2)c(C(=O)N(C)CC(C)(C)C)n(C)c1C(F)(F)F : 75 to 95%

inhibition at 3 µM in this record for Cc1cc(CN(C)C(=O)c2c(-c3ccc(F)cc3)cc(C(F)(F)F)n2CC2CCCO2)no1 (stereo not shown) : 75 to 95%

Entry source: patent US20160289186A1
